# Tested on: HT29 colon
# ASSAY INFO: NCI tumour cell line growth inhibition, 48 h
Below, each entry is listed alongside its reported TGI.

| COMPOUND | TGI |
| --- | --- |
| C[n+]1c(-c2ccc(/C=N/NC(=N)N/N=C/c3ccc(-c4cn5cc(Cl)ccc5[n+]4C)cc3)cc2)cn2cc(Cl)ccc21 | > 100 µM |
| CC(C)CCC(=O)c1ccoc1 | > 100 µM |
| CC[C@]12C=CCN3CC[C@@]4(c5cc(Br)c(OC)cc5N(C)[C@H]4[C@@](O)(C(=O)NN)[C@@H]1O)[C@@H]32 | > 100 µM |
| Cc1nn(-c2nc3ccccc3[nH]2)c(N)c1-c1ccc(Cl)cc1 | 67.8 µM |
| C[C@]12CCC(=O)C=C1CC[C@@H]1[C@@H]2[C@@H](O)C[C@@]2(C)[C@H]1CC[C@]2(O)C(=O)COC(=O)COCC(=O)O | > 100 µM |
| COC(=O)CCC(=O)NC1=C(NCc2ccccc2)C(=O)c2ccccc2C1=O | > 100 µM |
| COc1ccc(-c2cc(=O)c3ccc(C)nc3[nH]2)cc1 | > 100 µM |
| O=C(NCCC1([N+](=O)[O-])CCN(C(=O)c2ccccc2)CC1)c1ccccc1 | > 100 µM |
| C=C1C(=O)O[C@H]2C[C@@H]1CC/C(C)=C/CC/C(C)=C/CC[C@H]2C | > 100 µM |
| O=C(O)CCCCCCC[C@H]1S[C@H]1CCCCCCO | > 100 µM |
| FC(F)(F)c1nc2nc(Cl)c(Cl)nc2n1CCCN1CCOCC1 | > 100 µM |
| CCCCCCCCOC1C(O)C(O)C(O)C(O)C12CO2 (configuration not stated) | > 100 µM |
| CC(=O)[C@@]1(C)CC2(CCN(C)CC2)OC1C (some centres not stated) | > 100 µM |
| CN(CCn1cnc2c1c(=O)n(C)c(=O)n2C)C1CCCCC1 | > 100 µM |
| COC(=O)/C=C\n1c(C)cc(=O)[nH]c1=O | > 100 µM |
| C#CCOc1cccc(-c2ncnc3cc(NC(=O)CCl)ccc23)c1 | 1.49 µM |
| CN1CCCC2(CCCc3ccccc32)C1 (configuration not stated) | > 100 µM |
| C[C@]12CC[C@H]3[C@@H](CC=C4C[C@@H](N5CCCC5)CC[C@@]43C)[C@@H]1C[C@H](N1CCOCC1)[C@@H]2O | > 100 µM |
| O=c1c(Oc2ccc(F)cc2F)cc2cnc(NC3CCOCC3)nc2n1CCCO | > 25 µM |
| O=C(CC(c1ccccc1)c1c(O)c2ccccc2oc1=O)c1ccccc1 (configuration not stated) | > 100 µM |
| CN(C)CCCOc1ccc(-c2ccc3ncc4c(c3c2)n(C2CCOCC2)c(=O)n4C)cn1 | 13.5 µM |
| S=C(Nc1ccc(Br)cc1)Nc1ccc(Br)cc1 | > 100 µM |
| Cc1ccsc1/C=N/Nc1nc2ccccc2s1 | > 100 µM |
| O=C1c2ccccc2-c2c1c1c(=O)[nH]c3ccccc3c1n2Cc1ccccc1 | > 100 µM |
| COc1ccc2c(c1)N1CCc3cc(OC)c(OC)cc3C1C2 (configuration not stated) | > 100 µM |
| O=C1c2ccccc2C(Br)(Br)c2ccccc21 | > 100 µM |
| Cc1[nH]c2c(c1C)S(=O)(=O)c1cc3ccccc3nc1N2 | 28.2 µM |
| COC(=O)C1C/C(=C/N(C)C)C(=S)N1 (configuration not stated) | > 100 µM |
| Cc1ccc(-c2csc(/N=C3\C(=O)Nc4ccccc43)n2)cc1 | 4.83 µM |
| COC(=O)c1c(O)ccc2c1c1c(n2Cc2ccccc2Cl)C(=O)c2ccccc2C1=O | 3.58 µM |
| CCC[CH2][Sn]1([CH2]CCC)[O]CC(Cc2ccccc2)[O]1 (configuration not stated) | 14.5 µM |
| COc1cc(/C=C2\C(=O)Nc3cc(C)c(O)cc32)cc(OC)c1OC | > 39.6 µM |
| COc1ccc2nc3c([N+](=O)[O-])ccc4c3c(c2c1)NCCN4CCO | 2.02 µM |
| Oc1ccc(-c2nc(-c3cccnc3)c(-c3ccc(Cl)cc3)[nH]2)cc1O | 27.7 µM |
| CC(=O)N=C1N(/C=C2\C(=O)Oc3ccccc3C2=O)C(=O)/C(=C/c2ccc(OC(C)=O)cc2)N1C | > 100 µM |
| Cc1cc(=O)oc2cc(OC(=O)N(C)C)c(Cl)cc12 | > 100 µM |
| COc1cc(C2c3cc4c(cc3[C@@H](Nc3ccccc3)C3COC[C@H]23)OCO4)cc(OC)c1O (some centres not stated) | 45.5 µM |
| C1CCC2(CC1)O[C@@H]1[C@@H](O2)[C@@H](O[C@H]2O[C@@H]3COC4(CCCCC4)O[C@H]3[C@@H]3OC4(CCCCC4)O[C@@H]23)O[C@@H]2COC3(CCCCC3)O[C@@H]12 | > 100 µM |
| S=C(NC1=NCC(CN2CCN(c3ccccc3)CC2)O1)Nc1ccccc1 (configuration not stated) | > 100 µM |
| COC(=O)N(C(=O)OC)C(C(=O)O)C(C)C (configuration not stated) | > 100 µM |
| O=c1nc(/C=C/c2ccccc2Cl)cc2n1CCN2CCO | > 100 µM |
| O=C1Nc2ccccc2C12CCNC2Cc1ccccc1 (configuration not stated) | > 100 µM |

* * *

# Test system: KM12 colon
# ASSAY INFO: NCI tumour cell line growth inhibition, 48 h
Below, each entry is listed alongside its reported TGI.

| COMPOUND | U | RELATION SYMBOL | TGI |
| --- | --- | --- | --- |
| C1CCC2(CC1)O[C@@H]1[C@@H](O2)[C@@H](O[C@H]2O[C@@H]3COC4(CCCCC4)O[C@H]3[C@@H]3OC4(CCCCC4)O[C@@H]23)O[C@@H]2COC3(CCCCC3)O[C@@H]12 | µM | > | 100 |
| Cc1ccc(SC(CCC(Sc2ccc(C)cc2)Sc2ccc(C)cc2)Sc2ccc(C)cc2)cc1 | µM | > | 100 |
| Cc1cc2c(ccc3c(C)cc(=O)oc32)o1 | µM | > | 100 |
| COc1ccc(/C=N/n2cnc3c(sc(=S)n3-c3ccccc3)c2=O)cc1 | µM | > | 100 |
| COc1cc(/C=C2\C(=O)Nc3cc(C)c(O)cc32)cc(OC)c1OC | µM | = | 11.4 |
| CC(C)(C)C(=O)c1c(C(F)(F)F)n([O-])c2ccccc2[n+]1=O | µM | = | 2.4 |
| O=C(CO[N+](=O)[O-])Nc1ccc(C(=O)/C=C/c2ccc(Cl)cc2)cc1 | µM | = | 3.1 |
| CC[C@H](O)[C@H](C)C=C1SCCCS1 | µM | > | 100 |
| C[C@H](CCC(=O)NCCS(=O)(=O)O)[C@H]1CC[C@H]2[C@@H]3CC[C@@H]4C[C@H](O)CC[C@]4(C)[C@H]3CC[C@]12C | µM | > | 100 |
| CNC(=O)c1ccc(N2CCN(Cc3ccc4nc(C)c(=O)[nH]c4c3F)CC2)c(F)n1 | µM | > | 100 |
| Cc1cc(=O)oc2cc(OC(=O)N(C)C)c(Cl)cc12 | µM | > | 100 |
| C[N-]c1nnnn1C.[Au+].c1ccc([PH+](c2ccccc2)c2ccccc2)cc1 | µM | = | 28.6 |
| COC(=O)N(C(=O)OC)C(C(=O)O)C(C)C (stereo not given) | µM | > | 100 |
| Cc1ccc(-c2csc(/N=C3\C(=O)Nc4ccccc43)n2)cc1 | µM | = | 4.51 |
| COc1ccc(S(=O)(=O)Nc2ccccc2C(=O)O)cc1 | µM | > | 100 |
| O=c1c(Oc2ccc(F)cc2F)cc2cnc(NC3CCOCC3)nc2n1CCCO | µM | > | 25 |
| COc1cc(C2c3cc4c(cc3[C@@H](Nc3ccccc3)C3COC[C@H]23)OCO4)cc(OC)c1O (stereo not given in full) | µM | = | 32.5 |
| CN(C)CCCOc1ccc(-c2ccc3ncc4c(c3c2)n(C2CCOCC2)c(=O)n4C)cn1 | µM | = | 16.4 |
| Nc1nc(Cl)c(N)c(NCC2(CO)CC(OCc3ccccc3)C2)n1 (stereo not given) | µM | > | 100 |
| COc1ccc2nc3c([N+](=O)[O-])ccc4c3c(c2c1)NCCN4CCO | µM | = | 2.35 |

* * *

# Tested on: SK-MEL-28 melanoma
# ASSAY INFO: NCI tumour cell line growth inhibition, 48 h

| COMPOUND | RELATION SYMBOL | TGI (µM) |
| --- | --- | --- |
| C[n+]1c(-c2ccc(/C=N/NC(=N)N/N=C/c3ccc(-c4cn5cc(Cl)ccc5[n+]4C)cc3)cc2)cn2cc(Cl)ccc21 | > | 100 |
| COc1ccc2c(CN3CCCCC3CO)cc3cc(OC)c(OC)cc3c2c1 (stereo not given) | = | 18.6 |
| CCCCc1ccc(Nc2nc3c(ncn3C3CC(O)C(CN=[N+]=[N-])O3)c(=O)[nH]2)cc1 (stereo not given) | > | 100 |
| CC1CCC2(CC1)NN=c1s/c(=C\c3ccc(O)cc3)c(=O)n1N2 (stereo not given) | > | 100 |
| Cc1c(Cl)c2ccccc2n1S(=O)(=O)c1ccccc1 | > | 100 |
| Fc1ccc2[nH]cc(-c3nonc3-c3c[nH]c4ccc(Br)cc34)c2c1 | = | 8.15 |
| COC(=O)CCC(=O)NC1=C(Nc2ccc(OC)cc2)C(=O)c2ccccc2C1=O | = | 31.4 |
| CCOP(=O)(OCC)/C(C#N)=C/c1cn(C)cn1 | > | 100 |
| C[Si](C)(OCCS(=O)(=O)O)C1(Cc2cccc3ccccc23)S(=O)(=O)OCCOS1(=O)=O | = | 37 |
| COc1cc(-c2cc3ncccc3c3nc(N)c4cccnc4c23)cc(OC)c1OC | > | 100 |
